- SETTINGS: in acetone, 323.15 K

{"STRUCTURE AS SMILES": "O=C(O)CCCc1c[nH]c2ccccc12", "solubility (mole fraction)": 0.399}

----------
- SETTINGS: in ethyl lactate, 303.15 K
OUTCOME MEASURE: solubility (mole fraction)

{"STRUCTURE AS SMILES": "O=C(O)CCCc1c[nH]c2ccccc12", "RESULT": 0.14}

----------
- SETTINGS: in n-butanol, 283.15 K

{"STRUCTURE AS SMILES": "O=C(O)CCCc1c[nH]c2ccccc12", "solubility (mole fraction)": 0.0362}

----------
- SETTINGS: in ethyl lactate, 288.15 K

{"STRUCTURE AS SMILES": "O=C(O)CCCc1c[nH]c2ccccc12", "solubility (mole fraction)": 0.106}
